Reported pEC50 values follow for various compounds
# System: HMPV clinical isolate TN/1501/A1
# assay-details: HMPV antiviral assay Method-B (clinical isolate TN/1501/A1 in LLC-MK2 cells, ATP-Lite readout)
# Type: cell-based, Human metapneumovirus (HMPV)
# setup-conditions: human metapneumovirus, LLC-MK2, 144 h, hMPV WT1501 (clinical isolate TN/1501/A1), 6 days
pEC50: −log10 of the molar value.

1) C[C@]1(C(N)=O)COc2c1cc([C@@](O)(CNC(=O)c1cc(OCC(F)F)c3nn(C4(F)CC4)cc3c1)C(F)(F)F)nc2-c1csc2c(F)cccc12 > 6.30
2) COc1cc(C(=O)NC[C@](O)(c2cc3c(c(-c4ccc(C#N)c(Cl)c4)n2)OC[C@]3(C)C(N)=O)C(F)(F)F)cc2cn(C(F)F)nc12 < 6.30
3) C[C@]1(C(N)=O)COc2c1cc([C@@](O)(CNC(=O)c1ccc(F)c(NC(=O)NC3CC3)c1)C(F)(F)F)nc2-c1ccc(F)c(Cl)c1 < 6.30

Now for another entry.
Briefly, pEC50 measured for COc1cc(C(=O)NC[C@](O)(c2cc3c(c(-c4ccc(F)cc4)n2)OC[C@@]3(CF)C(N)=O)C2CC2)cc2cn(C3CC3)nc12 : < 6.30

* * *

# Tested on: HMPV clinical isolate TN/1501/A1
# assay-details: HMPV antiviral assay Method-B (clinical isolate TN/1501/A1 in LLC-MK2 cells, ATP-Lite readout)
# Format: cell-based, Human metapneumovirus (HMPV)
# setup-conditions: human metapneumovirus, LLC-MK2, 144 h, hMPV WT1501 (clinical isolate TN/1501/A1), 6 days
quantity-kind: EC50

compound	experimental-value
COc1cc(C(=O)NC[C@](O)(c2cc3c(c(-c4ccc5c(c4)OC(F)(F)O5)n2)OC[C@]3(C(N)=O)C(F)F)C2CC2)cc2cn(C3CC3)nc12 [Example 1010]	> 500 nM
COc1cc(C(=O)NC[C@](O)(c2cc3c(c(-c4ccc(F)c(Cl)c4)n2)OC[C@]3(C)C(N)=O)C2(F)CC2)cc2cn(C(F)F)nc12 [Example 721]	> 500 nM
COc1cc(C(=O)NC[C@](O)(c2nc(-c3ccc(F)cc3)c3c(c2F)[C@](C)(C(N)=O)CO3)C(F)(F)F)cc2cn(C(F)F)nc12 [Example 852]	> 500 nM
COc1cc(C(=O)NC[C@](O)(c2cc3c(c(-c4ccc(C(F)(F)F)c(Cl)c4)n2)OC[C@]3(C)C(N)=O)C(F)(F)F)cc2cn(C3CC3)nc12 [Example 579]	> 500 nM
COc1cc(C(=O)NC[C@](O)(c2cc3c(c(-c4cccc(OC(F)(F)F)c4)n2)OC[C@]3(C)C(N)=O)C(F)(F)F)cc2cn(C3CC3)nc12 [Example 978]	> 500 nM
COc1cc(C(=O)NC[C@](O)(c2cc3c(c(-c4ccc(F)cc4)n2)OC[C@]3(C)C(N)=O)C(F)(F)F)cc2c(C)onc12 [Example 888]	> 500 nM
COc1cc(C(=O)NC[C@](O)(c2cc3c(c(-c4cc(F)ccc4F)n2)OC[C@]3(C)C(N)=O)C(F)(F)F)cc2cn(C3CC3)nc12 [Example 992]	< 500 nM
C[C@]1(C(N)=O)COc2c1cc([C@@](O)(CNC(=O)c1cc(Cl)c3nn(C4CC4)cc3c1)C1CC1)nc2-c1csc2c(F)cccc12 [Example 622]	< 500 nM
COc1cc(C(=O)NC[C@](O)(c2cc3c(c(-c4ccc(F)cc4)n2)OC[C@@H]3C(N)=O)C(F)(F)F)cc2cn(C3CC3)nc12 [Example 653]	> 500 nM

Now for another entry.
Readout EC50 for COc1cc(C(=O)NC[C@](O)(c2cc3c(c(-c4c(F)cc(Cl)cc4F)n2)OC[C@]3(C)C(N)=O)C2CC2)cc2cc(Cl)c(C)nc12 [Example 1159] , test system HMPV clinical isolate TN/1501/A1, was < 500 nM

* * *

# Test system: HMPV clinical isolate TN/1501/A1
# assay-details: HMPV antiviral assay Method-B (clinical isolate TN/1501/A1 in LLC-MK2 cells, ATP-Lite readout)
# Type: cell-based, Human metapneumovirus (HMPV)
# setup-conditions: human metapneumovirus, LLC-MK2, 144 h, hMPV WT1501 (clinical isolate TN/1501/A1), 6 days
# Protocol: In vitro HMPV antiviral activity was evaluated using the clinical isolate TN/1501/A1 and LLC-MK2 cells (ATCC #CCL-7), an immortalized kidney epithelial cell line from Macaca mulatta. […] The test compounds were assessed in duplicate at a top concentration of 10 μM followed by 3-fold serial dilutions to give a total of 10 concentration points. […] Cells were counted and seeded at a density of 5,000 cells/well, 12.5 μL/well. […]
quantity-kind: EC50

Solved cases (5 shown):
1. Cc1nc2c(Cl)cc(C(=O)NC[C@](O)(c3cc4c(c(-c5ccc(F)cc5)n3)OC[C@]4(C)C(N)=O)C(F)(F)F)cc2[nH]1 > 500 nM
2. COc1cc(C(=O)NC[C@](O)(c2cc3c(c(-c4ccc5c(c4)OC(F)(F)O5)n2)OC[C@]3(C)C(N)=O)C2CC2)cc2cc(C3CC3)nn12 < 500 nM
3. COc1cc(C(=O)NC[C@](O)(c2cc3c(c(-c4cc(F)c(F)c(F)c4F)n2)OC[C@]3(C)C(N)=O)C(F)(F)F)cc2cn(C3CC3)nc12 < 500 nM
4. COc1cc(C(=O)NC[C@](O)(c2cc3c(c(-c4ccc(F)cc4)n2)OC[C@]3(C)C(=O)NCC(C)(C)O)C(F)(F)F)cc2cn(C3CC3)nc12 > 500 nM
5. COc1cc(C(=O)NC[C@](O)(c2cc3c(c(-c4csc(C(F)(F)F)n4)n2)OC[C@]3(C)C(N)=O)C(F)(F)F)cc2cn(C3CC3)nc12 < 500 nM

Briefly, EC50 measured for C[C@@H](O)COc1ccc(C(=O)NC[C@](O)(c2cc3c(c(-c4ccc5c(c4)OC(F)(F)O5)n2)OC[C@]3(C)C(N)=O)C2CC2)cc1OC1CC1 : > 500 nM

Briefly, EC50 measured for COc1cc(C(=O)NC[C@@](O)(c2cc3c(c(-c4ccc5c(c4)OC(F)(F)C(F)(F)O5)n2)OC[C@]3(C)C(N)=O)C(F)(F)F)cc2cn(C3CC3)nc12 : > 500 nM

Briefly, EC50 measured for COc1cc(C(=O)NC[C@](O)(c2cc3c(c(-c4ccc(F)c(F)c4F)n2)OC[C@]3(C)C(N)=O)C2(F)CC2)cc2cn(C(F)F)nc12 : < 500 nM

* * *

# Tested on: HMPV clinical isolate TN/1501/A1
# assay-details: HMPV antiviral assay Method-B (clinical isolate TN/1501/A1 in LLC-MK2 cells, ATP-Lite readout)
# Format: cell-based, Human metapneumovirus (HMPV)
# setup-conditions: human metapneumovirus, LLC-MK2, 144 h, hMPV WT1501 (clinical isolate TN/1501/A1), 6 days
pEC50: −log10 of the molar value.
quantity-kind: pEC50

Solved cases (9 shown):
1. C[C@]1(C(N)=O)COc2c1cc([C@@](O)(CNC(=O)c1cc(F)c3nn(C4CC4)cc3c1)C1CC1)nc2-c1csc2c(F)cccc12 > 6.30
2. COc1cc(C(=O)NC[C@](O)(c2cc3c(c(-c4cc(Br)c(F)cc4F)n2)OC[C@]3(C)C(N)=O)C2CC2)cc2cn(C(F)F)nc12 > 6.30
3. COc1cc(C(=O)NC[C@](O)(c2cc3c(c(-c4cc(F)c(F)cc4F)n2)OC[C@]3(C)C(N)=O)C(F)(F)F)cc2cn(C(F)F)nc12 > 6.30
4. COc1cc(C(=O)NC[C@](O)(c2cc3c(c(-c4ccc5c(c4)OC(F)(F)O5)n2)OC[C@@]3(C(N)=O)C(F)F)C2CC2)cc2cn(C(F)F)nc12 > 6.30
5. COc1ccc(C(=O)NC[C@](O)(c2cc3c(c(-c4ccc(F)cc4)n2)OC[C@]3(C)C(N)=O)C(F)(F)F)cc1NC(=O)NC1CC1 < 6.30
6. COc1cc(C(=O)NC[C@](O)(c2cc3c(c(-c4ccc(OC(F)F)cc4)n2)OC[C@]3(C)C(N)=O)C(F)(F)F)cc2cn(C3CC3)nc12 < 6.30
7. Cc1cnc2c(OCC(F)F)cc(C(=O)NC[C@](O)(c3cc4c(c(-c5ccc(F)c(Cl)c5)n3)OC[C@]4(C)C(N)=O)C3CC3)cc2c1 > 6.30
8. COc1cc(C(=O)NC[C@](O)(c2cc3c(c(-c4ccc(F)c(Cl)c4)n2)OC[C@]3(C)C(N)=O)C2CC2)cc2cn(C(F)F)nc12 > 6.30
9. C[C@]1(C(N)=O)COc2c1cc([C@@](O)(CNC(=O)c1cc(OCCF)c3nn(C4(F)CC4)cc3c1)C(F)(F)F)nc2-c1csc2c(F)cccc12 > 6.30

Readout pEC50 for COc1cc(C(=O)NC[C@](O)(c2cc3c(c(-c4ccc5c(c4)OC(F)(F)O5)n2)OC[C@@]3(C(N)=O)C(F)F)C(F)(F)F)cc2cc(Cl)c(C)nc12 , test system HMPV clinical isolate TN/1501/A1, was > 6.30
